B1: PhoQ; a variant is named by its letters at X, in order, P23837 (parent)
chain: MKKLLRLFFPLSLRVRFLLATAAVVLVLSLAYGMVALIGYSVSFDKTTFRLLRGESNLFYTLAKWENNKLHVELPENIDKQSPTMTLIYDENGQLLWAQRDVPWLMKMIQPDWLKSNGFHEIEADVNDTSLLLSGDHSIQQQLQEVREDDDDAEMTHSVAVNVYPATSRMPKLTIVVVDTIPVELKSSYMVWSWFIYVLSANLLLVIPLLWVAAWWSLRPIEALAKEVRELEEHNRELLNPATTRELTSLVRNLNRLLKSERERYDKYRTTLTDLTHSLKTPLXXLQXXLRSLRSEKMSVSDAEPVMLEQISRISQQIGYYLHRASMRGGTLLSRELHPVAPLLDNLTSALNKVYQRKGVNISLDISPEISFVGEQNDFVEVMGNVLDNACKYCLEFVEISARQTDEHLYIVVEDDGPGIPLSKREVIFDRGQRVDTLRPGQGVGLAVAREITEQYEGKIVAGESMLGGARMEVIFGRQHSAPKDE

variants of: B1; experiment: enrichment ratio after two sorts for PhoP signalling (ratio (wild type AVST 3.29)); higher = more functional; settings: with PhoP (E. coli)
Whole data set: some 140,000 sequences, median “enrichment ratio after two sorts for PhoP signalling” near 0, cut for the highest 2% near 11. Many of the other results were omitted from the sample, so the highest values are more common in it than they were.
Measurement Label: enrichment ratio

Please review the following examples before continuing.
# Mutant, Measurement Label, Result
data = [
    ("TFQG", "enrichment ratio", 12.3),
    ("FYGE", "enrichment ratio", "≤ 0.25"),
    ("VSMQ", "enrichment ratio", 2.71),
    ("DAMY", "enrichment ratio", "≤ 0.25"),
    ("KRSK", "enrichment ratio", "≤ 0.25"),
]

Requested read-out: enrichment ratio. Entry: "PFQG"
≤ 0.25

Requested read-out: enrichment ratio. Entry: "KAQG"
≤ 0.25

Requested read-out: enrichment ratio. Entry: "TVQG"
14.6

Requested read-out: enrichment ratio. Entry: "FKRE"
≤ 0.25

The measured values listed here are drawn from a collection of fitness landscapes (doi:10.1126/science.1257360).
